System: Staphylococcus aureus
protocol notes: Antibacterial activity against tetracycline-resistant Staphylococcus aureus isolate 158 harboring tet(K) gene by CLSI M07-A8 method
Assay type: functional
experimental endpoint: MIC (µg/mL)
Give the number; µg/mL is assumed, so skip it.

Here is how some compounds turned out for MIC.
- structure smiles: "CN(C)CC(C)(C)CNc1nc(F)c2c(c1O)C(=O)C1=C(O)[C@]3(O)C(=O)C(C(N)=O)=C(O)[C@@H](N(C)C)[C@@H]3C[C@@H]1C2.Cl"
  unit spec: "µg/mL"
  MIC: 0.5
- structure smiles: "CC(C)CCNc1nc(Cl)c2c(c1O)C(=O)C1=C(O)[C@]3(O)C(=O)C(C(N)=O)=C(O)[C@@H](N(C)C)[C@@H]3C[C@@H]1C2.Cl.Cl.Cl"
  unit spec: "µg/mL"
  MIC: 0.25
- structure smiles: "CN(C)c1ncc(O)c2c1C[C@H]1C[C@H]3[C@H](N(C)C)C(O)=C(C(N)=O)C(=O)[C@@]3(O)C(O)=C1C2=O.Cl.Cl"
  unit spec: "µg/mL"
  MIC: 2
- structure smiles: "CC(C)OCCNc1nc(Cl)c2c(c1O)C(=O)C1=C(O)[C@]3(O)C(=O)C(C(N)=O)=C(O)[C@@H](N(C)C)[C@@H]3C[C@@H]1C2.Cl.Cl.Cl"
  unit spec: "µg/mL"
  MIC: 0.25

Consider now this further compound.
## Task If you can, please state the reported MIC value of Cc1ncc(O)c2c1C[C@H]1C[C@H]3[C@H](N(C)C)C(O)=C(C(N)=O)C(=O)[C@@]3(O)C(O)=C1C2=O.Cl.Cl .
## Result 0.5

====

Tested on: Klebsiella pneumoniae
protocol notes: Antibacterial activity against Klebsiella pneumoniae ATCC 13883 by CLSI M07-A8 method
Type: functional
experimental endpoint: MIC (µg/mL)
Expressed in µg/mL, but write only the number.

## Task Requested field: MIC. Item: CNc1nc(Cl)c2c(c1O)C(=O)C1=C(O)[C@]3(O)C(=O)C(C(N)=O)=C(O)[C@@H](N(C)C)[C@@H]3C[C@@H]1C2.Cl.Cl.Cl
## Result 0.5

====

System: Escherichia coli
protocol notes: Antibacterial activity against Escherichia coli ATCC 25922 infected in iv dosed mouse septicemia model assessed as mouse protection after 48 hrs
Format: functional
experimental context: ATCC 25922, iv, read-out: PD50
# reported ED50; entries follow
Express it in mg/kg; write the number only.

Past entries and their recorded results:
- structure smiles: "CN(C)c1cc(NC(=O)CNC(C)(C)C)c(O)c2c1C[C@H]1C[C@H]3[C@H](N(C)C)C(O)=C(C(N)=O)C(=O)[C@@]3(O)C(O)=C1C2=O"
  unit spec: "mg/kg"
  experimental value: 2.1
- structure smiles: "CN(C)[C@@H]1C(O)=C(C(N)=O)C(=O)[C@@]2(O)C(O)=C3C(=O)c4c(O)cccc4[C@@](C)(O)[C@H]3C[C@@H]12"
  unit spec: "mg/kg"
  experimental value: 17
- structure smiles: "CN(C)c1ncc(O)c2c1C[C@H]1C[C@H]3[C@H](N(C)C)C(O)=C(C(N)=O)C(=O)[C@@]3(O)C(O)=C1C2=O.Cl.Cl"
  unit spec: "mg/kg"
  experimental value: 4.3

## Task So what ED50 did CN(C)CC(C)(C)CNc1nc(Cl)c2c(c1O)C(=O)C1=C(O)[C@]3(O)C(=O)C(C(N)=O)=C(O)[C@@H](N(C)C)[C@@H]3C[C@@H]1C2.Cl get with Escherichia coli?
## Result 17
